Where do the numbers come from? From patent US20220251194A1.

KD (REF)/KD listing for selected binders.
biological target: T1, polyhistidine-tagged human PD-1 (hPD1-His, 98AFK) (human, UniProt Q15116 25-167, limits assumed); assay: SPR (Biacore T200), mAb captured on anti-Fc chip; reference Mouse 08A
T1 construct: also called human PD1-His; Human PD-1-His
T1 sequence (Q15116 25-167 limits assumed): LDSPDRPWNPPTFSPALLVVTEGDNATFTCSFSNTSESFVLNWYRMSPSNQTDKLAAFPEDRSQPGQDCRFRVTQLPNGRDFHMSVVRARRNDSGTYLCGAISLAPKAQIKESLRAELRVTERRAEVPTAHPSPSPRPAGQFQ
Property Name: KD (REF)/KD

[[record]]
binder = "Mouse 08A (REF) (antibody, mouse IgG1, kappa, V domains shown, Mouse IgG1 / kappa; also called 09AFF; parental mouse 08A antibody) VH: QVQLQQPGAELVKPGASVKLSCKASGYTFTSYYLYWMKQRPGQGLEWIGGVNPSNGGTNFSEKFKSKATLTVDKSSSTAYMQLSSLTSEDSAVYYCTRRDSNYDGGFDYWGQGTTLTVSS VL: DIVLTQSPTSLAVSLGQRATISCRASKSVSTSGFSYLHWYQQKPGQPPKLLIFLASNLESGVPARFSGSGSGTDFTLNIHPVEEEDAATYYCQHSWELPLTFGAGTKLELKR"
recorded_measurement = 1

[[record]]
binder = "Humanized 08A IgG4 S61N G56A (antibody, V domains shown, IgG4 S228P / kappa; also called 51AQK; Humanized x [PD-1_H] mAb (08A/HuPD1A-11 S61N VH G56A / VL) IgG4 S228P / Kappa) VH: EVQLVQSGAEVKKPGASVKVSCKASGYTFTSYYLYWVRQAPGQGLEWIGGVNPSNAGTNFNEKFKSRVTLTVDTSISTAYMELSRLRSDDTAVYYCTRRDSNYDGGFDYWGQGTTVTVSS VL: DIVMTQTPLSLSVTPGQPASISCRASKSVSTSGFSYLHWYLQKPGQPPQLLIFLASNLESGVPDRFSGSGSGTDFTLKISRVEAEDVGVYYCQHSWELPLTFGQGTKLEIKR"
recorded_measurement = 4.2

[[record]]
binder = "Mouse 09A (antibody, mouse IgG1, kappa, V domains shown, Mouse IgG1 / kappa; also called 03AFN; Mouse x [PD-1_H] mAb (clone 09A) IgG1 / Kappa) VH: QVQLQQPGAELVKPGTSVKLSCKASGYTFTNYYMYWVKQRPGQGLEWIGGINPSNGGTNFNEKFKNKATLTVDSSSSTTYMQLSSLTSEDSAVYYCTRRDYRFDMGFDYWGQGTTLTVSS VL: DIVLTQSPASLAVSLGQRAAISCRASKGVSTSGYSYLHWYQQKPGQSPKLLIYLASYLESGVPARFSGSGSGTDFTLNIHPVEEEDAATYYCQHSRDLPLTFGTGTKLELKR"
recorded_measurement = 0.5

